- SYSTEM_TESTED: HLA-A*68:01
- TEST_SUMMARY: IEDB peptide-MHC binding, purified MHC/competitive/radioactivity; filed as Kd, often an IC50 or EC50 that approximates it; bounds were set here for any values at or beyond the usual limits of such assays
- TEST_PARAMETERS: source organism: Mammarenavirus machupoense
VALUE_KIND: Kd (µM)
Your answer is read as µM, so omit the unit and give the number.

Sample CQFDHVNTLH ; Kd observed: 9.28

====

- SYSTEM_TESTED: HLA-A*03:01
- TEST_SUMMARY: IEDB peptide-MHC binding, purified MHC/direct/fluorescence; filed as Kd, often an IC50 or EC50 that approximates it; bounds were set here for any values at or beyond the usual limits of such assays
- TEST_PARAMETERS: source organism: Influenza A virus (A/chicken/Viet Nam/DT-015/2004(H5N1))
pKd: −log10 of the molar value.
VALUE_KIND: pKd

Sample GIPLYDAIK ; pKd observed: ≤ 4.70
